Here, each record is paired with measured MIC E. coli data.
Tested on: E. coli strain DH5α
Assay: Antimicrobial activity of peptoids with altered cationic residues, MIC
Format: cell-based
Conditions: LB medium, 18 h
Non-standard residues stand in square brackets, D forms with d. Residues, ends and D or L forms follow the SMILES beside them. Nspe = C[C@H](NCC(=O)O)c1ccccc1; Nlys = NCCCCNCC(=O)O
The figure you give is taken to be in µM; do not add the unit.

# molecule, target, endpointName, unitDescriptor, dataValue
data = [
    ("C[C@@H](c1ccccc1)N(CC(=O)N(CCCCN)CC(=O)N(CC(=O)N(CC(=O)N(CCCCN)CC(=O)N(CC(=O)N(CC(=O)N(CCCCN)CC(N)=O)[C@@H](C)c1ccccc1)[C@@H](C)c1ccccc1)[C@@H](C)c1ccccc1)[C@@H](C)c1ccccc1)C(=O)CN(C(=O)CNCCCCN)[C@@H](C)c1ccccc1 [compound 23] (H-[Nlys][Nspe][Nspe][Nlys][Nspe][Nspe][Nlys][Nspe][Nspe][Nlys]-NH2)", "E. coli strain DH5α", "MIC E. coli", "µM", 1.6),
]

Next item in the queue.
**Query** Supply measured MIC E. coli of C[C@@H](c1ccccc1)N(CC(N)=O)C(=O)CN(C(=O)CN(CCCCN)C(=O)CN(C(=O)CN(C(=O)CN(CCCCN)C(=O)CN(C(=O)CN(C(=O)CNCCCCN)[C@@H](C)c1ccccc1)[C@@H](C)c1ccccc1)[C@@H](C)c1ccccc1)[C@@H](C)c1ccccc1)[C@@H](C)c1ccccc1 [compound 18] (H-[Nlys][Nspe][Nspe][Nlys][Nspe][Nspe][Nlys][Nspe][Nspe]-NH2) in your reply.
**Result** 3.1
